Values compiled from patent US20240174746A1.

target: T1, mouse TMEM106B (mouse, UniProt Q80X71 2-275); assay: flow cytometry, HEK293 cells transiently transfected with murine TMEM106B
T1 construct: Full-length cDNA transiently transfected into HEK293 cells; also called muTMEM106B; murine TMEM106B
readout label: fold-change in binding over parental HEK293 cells (fold)

[[record]]
binder = "TM-91 (antibody, V domains shown, Purified from mouse hybridoma) VH: DVQLQESGPGLVKPSQSLSLTCSVTGYSITSGYYWDWIRQFPGNKLEWMGYISYDGNNNYNPSLKNRISITRDTSKNQFFLKLNSVTTEDTATYYCARAVYSVGFAYWGQGTLVTVSS VL: DIVMTQSQKFMSTSVGDRVSVTCKASQNVYTNVAWYQQKPGQSPKPLIYSASYRYSGVPDRFTGSGSGTDFTLTISNVQSEDLAEYFCQQYNSYPLTFGGGTKLEIK"
quantitative_result = 2.41

[[record]]
binder = "TM-86 (antibody, V domains shown, Purified from mouse hybridoma) VH: EVQLQQSGPVLVKPGASVKMSCKASGYTFTDYYIHWVKQSHGRSLEWIGVISPYNDNTNYNQKFKGKATLTVDKSSSTAYMELNSLTSEDSAVYYCVRTYYSNYFDYWGQGTTLTVSS VL: DIVMTQSPSSLSVSAGEKVTMSCKSSQSLLNSGNQKNYLAWHQQRPGQPPKLLIYGASTRESGVPDRFTGSGSGTEFTLTISSVQAEDLAVYYCQNDHSYPLTFGAGTKLELK"
quantitative_result = 5.78

[[record]]
binder = "TM-59 (antibody, V domains shown, Purified from mouse hybridoma) VH: QVQLQQSGAELAKPGASVKLSCKASGYTFISYWMHWVKQRPGQGLEWIGYVNPSSGYTKNNQKFKDKATLTADKSSSTAYMQLSSLTYEDSAVYYCAREGGSISDWYFDVWGTGTTVTVSS VL: DIVMTQAAPSVPVTPGESVSISCRSSKSLLHSNGNTYSYWFLQRPGQSPQLLIYRMSNLASGVPDRFSGSGSGTAFTLRISRVEAEDVGVYYCMQHLEYPYTFGGGTKLEIK"
quantitative_result = 0.42

[[record]]
binder = "TM-87 (antibody, V domains shown, Purified from mouse hybridoma) VH: EVQLQQSGPVLVKPGASVKLSCKASGYTFTDYYMNWVKQSHGKSLEWIGVINPYNGATSYNQKFQDKATLTVDKSSSTAYMGLNSLTSEDSAVYYCANGNYDWYFDVWGTGTTVTVSS VL: DVQITQSPSYLAASPGETITINCRASRSISKYLAWYQEKPGKTNKLLIYSGSTLQSGIPSRFSGSGSGTDFTLTISSLEPEDFAVYYCQQHNEYPLTFGAGTKLELK"
quantitative_result = 27

[[record]]
binder = "TM-63 (antibody, V domains shown, Purified from mouse hybridoma) VH: QVQLQQPGAELVKFGASVKLSCKASGYTFTSFWMHWVKQRPGQGLEWIGNIDPSDSETHYSQKFKDKATLTVDRSSNTAYIQLSSLTSEDSAVYYCARSSNWDNFDYWGQGTTVTVSS VL: DIVMTQASPSVSVTPGESVSISCRSSQSLLHVNGNTYLYWFLQRPGRSPRLLIYRMSNLASGVPDRFSGSGSGTAFTLRISRVEAEDVGVYYCMQHLQYPFSFGSGTKLEMK"
quantitative_result = 0.62

